# targetUnderTest: HER2 YVMA (Homo sapiens, UniProt P04626, INS775YVMA)
# Sequence (P04626 with tags, fused parts or gaps INS775YVMA): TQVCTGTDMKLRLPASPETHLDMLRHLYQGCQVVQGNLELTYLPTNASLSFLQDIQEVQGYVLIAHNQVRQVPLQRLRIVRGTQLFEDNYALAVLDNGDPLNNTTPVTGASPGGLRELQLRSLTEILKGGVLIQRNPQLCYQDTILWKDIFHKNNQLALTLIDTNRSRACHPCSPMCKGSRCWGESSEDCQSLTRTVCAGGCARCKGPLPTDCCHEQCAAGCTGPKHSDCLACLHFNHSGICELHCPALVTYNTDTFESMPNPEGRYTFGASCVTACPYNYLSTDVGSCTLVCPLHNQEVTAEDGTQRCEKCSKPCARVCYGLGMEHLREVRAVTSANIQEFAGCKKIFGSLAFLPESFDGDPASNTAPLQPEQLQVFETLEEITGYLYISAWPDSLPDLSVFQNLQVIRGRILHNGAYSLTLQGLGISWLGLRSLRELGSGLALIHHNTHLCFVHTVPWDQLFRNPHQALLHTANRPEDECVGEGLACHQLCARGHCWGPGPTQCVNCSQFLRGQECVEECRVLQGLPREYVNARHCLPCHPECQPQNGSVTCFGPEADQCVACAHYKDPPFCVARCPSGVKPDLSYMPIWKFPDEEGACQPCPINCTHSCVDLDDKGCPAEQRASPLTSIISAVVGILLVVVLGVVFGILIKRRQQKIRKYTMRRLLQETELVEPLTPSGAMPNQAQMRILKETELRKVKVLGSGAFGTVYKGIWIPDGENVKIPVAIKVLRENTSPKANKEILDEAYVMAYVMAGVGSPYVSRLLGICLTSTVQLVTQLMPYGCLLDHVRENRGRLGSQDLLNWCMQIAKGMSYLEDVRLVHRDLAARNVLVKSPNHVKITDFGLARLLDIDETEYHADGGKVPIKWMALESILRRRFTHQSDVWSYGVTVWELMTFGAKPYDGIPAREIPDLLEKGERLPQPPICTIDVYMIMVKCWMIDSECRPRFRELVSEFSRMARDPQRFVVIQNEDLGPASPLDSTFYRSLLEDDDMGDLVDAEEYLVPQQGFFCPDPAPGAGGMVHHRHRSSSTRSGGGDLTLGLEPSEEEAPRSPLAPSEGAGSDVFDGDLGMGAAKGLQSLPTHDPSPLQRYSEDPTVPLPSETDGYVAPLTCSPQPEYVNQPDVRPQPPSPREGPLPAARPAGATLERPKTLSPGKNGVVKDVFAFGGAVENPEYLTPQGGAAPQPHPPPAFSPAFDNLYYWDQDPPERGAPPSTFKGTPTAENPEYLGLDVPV
# assayInfo: pHER2 (ERBB2) YVMA assay (AlphaScreen Surefire, HEK cells)
# measurementContext: HEK cells expressing HER2 YVMA, phosphorylation at Tyr1221/1222, 4 h
Below, each entry is listed alongside its reported pIC50.
Convention used: pIC50 is expressed as -log10 of the molar concentration.

Before answering, review these 8 worked examples.
C=CC(=O)N1CCN(c2ncc3ncnc(Nc4ccc(Oc5ccc6c(c5)ncn6C)c(Cl)c4)c3n2)CC1 = 8.00
C=CC(=O)N1CCN(c2ncc3ncnc(Nc4cc(Br)c(Oc5ccc6c(c5)ncn6C)cc4Cl)c3n2)CC1 = 7.10
C=CC(=O)N1CCN(c2ncc3ncnc(Nc4cc(Br)c(Oc5ccc6c(c5)ncn6C)c(Br)c4)c3n2)CC1 = 7.47
C=CC(=O)N1CCN(c2ncc3ncnc(Nc4cc(Cl)c(Oc5ccc6c(c5)ncn6C)c(Cl)c4)c3n2)CC1 = 7.52
C=CC(=O)N1CCN(c2ncc3ncnc(Nc4cc(F)c(Oc5ccc6c(c5)ncn6C)c(F)c4)c3n2)CC1 = 7.60
C#Cc1cc(Nc2ncnc3cnc(N4CCN(C(=O)C=C)CC4)nc23)ccc1Oc1ccc2c(c1)ncn2C = 8.00
C=CC(=O)N1CCN(c2ncc3ncnc(Nc4ccc(Oc5ccc6c(c5)ncn6C)c(Br)c4)c3n2)CC1 = 7.82
C=CC(=O)N1CCN(c2ncc3ncnc(Nc4ccc(Oc5ccc6c(c5)ncn6C)c(F)c4)c3n2)CC1 = 7.72

[ask] Entry C=CC(=O)N1CCN(c2ncc3ncnc(Nc4ccc(Oc5ccc6c(c5)ncn6C)c(OC)c4)c3n2)CC1 has what pIC50?
[reply] 7.77

[ask] Entry C=CC(=O)N1CCN(c2ncc3ncnc(Nc4ccc(Oc5ccc6c(c5)ncn6C)cc4F)c3n2)CC1 has what pIC50?
[reply] 7.57

[ask] Entry C=CC(=O)N1CCN(c2ncc3ncnc(Nc4ccc(Oc5ccc6c(c5)ncn6C)c(C)c4)c3n2)CC1 has what pIC50?
[reply] 8.00

[ask] Entry C=CC(=O)N1CCN(c2ncc3ncnc(Nc4cc(F)c(Oc5ccc6c(c5)ncn6C)c(Cl)c4)c3n2)CC1 has what pIC50?
[reply] 7.66

###

# Test system: Ba/F3 cells HER2 WT
# assayInfo: Ba/F3 proliferation assay HER2 WT
# Assay type: cell-based
# measurementContext: Mus musculus, BaF3; 72 h, CellTiter-Glo
Below, each entry is listed alongside its reported GI50.
Supply the numeric figure in nM, leaving out any unit text.

C=CC(=O)N1CCN(c2ncc3ncnc(Nc4ccc(Oc5ccc6c(c5)ncn6C)c(F)c4)c3n2)CC1 [Compound I-6] = 3
C=CC(=O)N1CCN(c2ncc3ncnc(Nc4cc(F)c(Oc5ccc6c(c5)ncn6C)c(F)c4)c3n2)CC1 [Compound I-11] = 3
C=CC(=O)N1CCN(c2ncc3ncnc(Nc4cc(Br)c(Oc5ccc6c(c5)ncn6C)c(Br)c4)c3n2)CC1 [Compound I-9] = 5
C=CC(=O)N1CCN(c2ncc3ncnc(Nc4cc(Cl)c(Oc5ccc6c(c5)ncn6C)c(Cl)c4)c3n2)CC1 [Compound I-7] = 6
C#Cc1cc(Nc2ncnc3cnc(N4CCN(C(=O)C=C)CC4)nc23)ccc1Oc1ccc2c(c1)ncn2C [Compound I-2] = 1

[ask] Entry C=CC(=O)N1CCN(c2ncc3ncnc(Nc4ccc(Oc5ccc6c(c5)ncn6C)c(OC)c4)c3n2)CC1 [Compound I-3] has what GI50?
[reply] 1

[ask] Entry C=CC(=O)N1CCN(c2ncc3ncnc(Nc4cc(Br)c(Oc5ccc6c(c5)ncn6C)cc4Cl)c3n2)CC1 [Compound I-10] has what GI50?
[reply] 8
